Listing of entries alongside the reported IC50.
molecular target: full length AKT E17K (Homo sapiens, UniProt P31749, E17K); construct: host or cells: HEK-293 (ATCC CRL-1573); test: NanoBRET Target Engagement (TE) Assay; assay type: cell-based; conditions: competitive tracer displacement in living cells, read-out: AKT1 E17K IC50
Sequence (P31749 whole entry E17K): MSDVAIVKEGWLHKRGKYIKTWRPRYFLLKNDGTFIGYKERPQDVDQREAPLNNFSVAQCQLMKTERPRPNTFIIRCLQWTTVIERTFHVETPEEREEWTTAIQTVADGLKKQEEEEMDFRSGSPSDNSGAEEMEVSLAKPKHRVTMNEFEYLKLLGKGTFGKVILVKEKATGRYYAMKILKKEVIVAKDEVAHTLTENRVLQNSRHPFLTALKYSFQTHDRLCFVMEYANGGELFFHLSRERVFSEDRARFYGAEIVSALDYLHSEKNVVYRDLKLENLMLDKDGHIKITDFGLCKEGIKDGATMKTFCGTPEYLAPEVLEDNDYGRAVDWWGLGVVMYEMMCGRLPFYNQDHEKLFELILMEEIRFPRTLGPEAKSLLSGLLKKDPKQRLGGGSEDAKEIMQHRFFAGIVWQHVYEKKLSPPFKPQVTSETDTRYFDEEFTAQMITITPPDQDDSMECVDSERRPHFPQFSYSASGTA

# annotated cases, reported IC50 shown
Compound | Test System | IC50
C[C@@H]1CN(Cc2ccc(-n3c(-c4cccnc4N)nc4ccc(-c5ccccc5)nc43)cc2)CCN1c1cc(C#N)ncn1 [Example 227] | full length AKT E17K (Homo sapiens, UniProt P31749, E17K) | 0.06 to 0.6 µM
N#Cc1ccc(NCc2ccc(-n3c(-c4cccnc4N)nc4cccnc43)cc2)cn1 [Example 128] | full length AKT E17K (Homo sapiens, UniProt P31749, E17K) | 0.6 to 10 µM
N#Cc1cccnc1OC1CCN(Cc2ccc(-n3c(-c4cccnc4N)nc4cc(-c5ccccc5)cnc43)cc2)CC1 [Example 12] | full length AKT E17K (Homo sapiens, UniProt P31749, E17K) | 0.6 to 10 µM
N#Cc1nccc(NC2CCN(Cc3ccc(-n4c(-c5cccnc5N)nc5ccc(-c6ccccc6Cl)nc54)cc3)CC2)n1 [Example 305] | full length AKT E17K (Homo sapiens, UniProt P31749, E17K) | < 0.015 µM

Query: API: value(readout=IC50, system=full length AKT E17K (Homo sapiens, UniProt P31749, E17K)) for record N#Cc1cc(C(=O)NCc2ccc(-n3c(-c4cccnc4N)nc4cccnc43)cc2)ncn1 [Example 113]
Response: 0.6 to 10 µM

Query: Look up IC50 with full length AKT E17K (Homo sapiens, UniProt P31749, E17K) for this compound: N#Cc1cc(N2CCN(Cc3ccc(-n4c(-c5cccnc5N)nc5cccnc54)cc3)CC2)ccn1 [Example 13]
Response: 0.6 to 10 µM

Query: Recall the recorded IC50 for N#Cc1cc(N2CCN(Cc3ccc(-n4c(-c5cccnc5N)nc5ccc(C6CC6)nc54)cc3)CC2)ncn1 [Example 290] with full length AKT E17K (Homo sapiens, UniProt P31749, E17K) and state it.
Response: 0.015 to 0.06 µM

Query: Param readout = IC50; param system = full length AKT E17K (Homo sapiens, UniProt P31749, E17K); param query = N#Cc1ncnc(N2CC3CCC2CN3Cc2ccc(-n3c(-c4cccnc4N)nc4ccc(-c5ccccc5)nc43)cc2)n1 (centres unmarked) [Example 257] ; response: value
Response: 0.015 to 0.06 µM

Query: Look up IC50 with full length AKT E17K (Homo sapiens, UniProt P31749, E17K) for this compound: CC(C)c1ccc2nc(-c3cccnc3N)n(-c3ccc(CN4CCC(Nc5ccnc(C#N)n5)CC4)cc3)c2n1 [Example 286]
Response: < 0.015 µM

Query: Requested read-out IC50, target or system full length AKT E17K (Homo sapiens, UniProt P31749, E17K), entry N#Cc1nccc(N2C3CCC2CN(Cc2ccc(-n4c(-c5cccnc5N)nc5ccc(-c6ccccc6)nc54)cc2)C3)n1 [Example 203]
Response: 0.06 to 0.6 µM

Query: Report IC50 for N#Cc1cncc(NC2CCN(Cc3ccc(-n4c(-c5cccnc5N)nc5cccnc54)cc3)CC2)n1 [Example 76] tested on full length AKT E17K (Homo sapiens, UniProt P31749, E17K).
Response: 0.6 to 10 µM
